Recorded values, source the RNAGym collection of RNA variant scans (doi:10.7554/elife.80360).

B1: CPEB3 Ribozyme (parent)
chain: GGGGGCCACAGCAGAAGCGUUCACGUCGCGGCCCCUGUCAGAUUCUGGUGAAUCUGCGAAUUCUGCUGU

Variants of: B1
TEST_PROTOCOL: self-cleavage, relative activity (ratio to wild type); higher = more cleavage; co-transcriptional

- MUT: "G17A C32A"
  self-cleavage: 0.164
- MUT: "G1A U53A"
  self-cleavage: 0.0419
- MUT: "C12A C33U"
  self-cleavage: 0.671
- MUT: "C24A G47C"
  self-cleavage: 0.765
- MUT: "A59G U69C"
  self-cleavage: 1.06
- MUT: "C18G U61A"
  self-cleavage: 0.223
- MUT: "G3A C45A"
  self-cleavage: 0.544
- MUT: "G2A A60G"
  self-cleavage: 0.0573
- MUT: "G31U U61C"
  self-cleavage: 0.258
- MUT: "C9U G30A"
  self-cleavage: 0.972
- MUT: "A13C U67C"
  self-cleavage: 0.706
- MUT: "C6U C39A"
  self-cleavage: 0.852
- MUT: "G41A U49A"
  self-cleavage: 0.885
- MUT: "C32U G41U"
  self-cleavage: 0.856
- MUT: "C22A U26A"
  self-cleavage: 0.117
- MUT: "G19U C34G"
  self-cleavage: 0.232
- MUT: "A23G U64C"
  self-cleavage: 0.777
- MUT: "G4U G5C"
  self-cleavage: 0.105
- MUT: "C33U C39G"
  self-cleavage: 0.918
- MUT: "A42U U53C"
  self-cleavage: 0.935
- MUT: "A16U U21G"
  self-cleavage: 0.294
- MUT: "U36C U64A"
  self-cleavage: 0.713
